Experiment: Inhibition of ABL in mouse BAF3 cells assessed as reduction in cell viability after 72 hrs by MTT assay
Measurement Kind: IC50 (µM)

{"Smiles": "COc1cc(N2CCN(C)CC2)ccc1Nc1ncc(Cl)c(Oc2ccc(NC(C)=O)cc2)n1", "Reported Value": 2.08}
{"Smiles": "COc1cc(N2CCN(C)CC2)ccc1Nc1ncc(Cl)c(Oc2ccc([N+](=O)[O-])cc2)n1", "Reported Value": 3.48}
{"Smiles": "COc1cc(N2CCN(C)CC2)ccc1Nc1ncc(Cl)c(Oc2ccccc2NC(C)=O)n1", "Reported Value": 8.49}

----------
Assay: Inhibition of ABL T315I mutant in mouse BAF3 cells assessed as reduction in cell viability after 72 hrs by MTT assay
pIC50: −log10 of the molar value.
Recorded pIC50 values for a group of molecules are listed next.

{"Smiles": "COc1cc(N2CCN(C)CC2)ccc1Nc1ncc(Cl)c(Oc2ccc([N+](=O)[O-])cc2)n1", "pIC50": 5.16}
{"Smiles": "COc1cc(N2CCN(C)CC2)ccc1Nc1ncc(Cl)c(Oc2cccc(NC(=O)CO)c2)n1", "pIC50": 5.95}
{"Smiles": "COc1cc(N2CCN(C)CC2)ccc1Nc1ncc(Cl)c(Oc2cccc(NC(=O)COCc3ccccc3)c2)n1", "pIC50": 5.54}
{"Smiles": "COc1cc(N2CCN(C)CC2)ccc1Nc1ncc(Cl)c(Oc2cccc(NC(=O)/C=C/CN(C)C)c2)n1", "pIC50": 5.22}
{"Smiles": "COc1cc(N2CCN(C)CC2)ccc1Nc1ncc(Cl)c(Oc2ccccc2NC(=O)/C=C/CN(C)C)n1", "pIC50": 5.09}
{"Smiles": "COc1cc(N2CCN(C)CC2)ccc1Nc1ncc(Cl)c(Oc2cccc(N=[N+]=[N-])c2)n1", "pIC50": 5.33}
{"Smiles": "COc1cc(N2CCN(C)CC2)ccc1Nc1ncc(Cl)c(Oc2ccccc2N)n1", "pIC50": 5.24}
